Consider the following binders and their measured pKd readings.
Target: SARS-CoV-2 Receptor Binding Domain (RBD) protein (SARS-CoV-2)
Experiment: SPR (Carterra LSA), scFv captured via anti-V5, RBD as analyte, 1:1 fit
pKd: −log10 of the molar value.

{"BINDER": "COVID19_P23_F10 (scFv, V domains shown) VH: QVQLVQSGAEVKKPGASVKVSCKASGDTFSNYGISWVRQAPGQGLEWMGWMNPNSGGTNYAQKFQGRVTMTRDTSTSTVYMELSSLRSEDTAVYYCAIGTTVVTPFGYWGQGTLVNVSS VL: EIVMTQSPATLSVSPGERATLSCRASESVSSRYLAWYQQKPGQAPRLLIYGASTRATGIPARFSGSGSGTEFTLTISSLQSEDFAVYYCQQGYKNPPTFGQGTKVEIKR", "pKd": 8.10}
{"BINDER": "COVID19_P24_D09 (scFv, V domains shown) VH: QVQLVQSGAEVKKPGASVKVSCKASGGTFSSYAISWVRQAPGQGLEWMGIVNPSSGSTTYAQKFQGRVTMTRDTSTSTVYMELSSLRSEDTAVYYCARVRGSAAIAMMDVWGQGTTVTVSS VL: DIQMTQSPSSLSASVGDRVTITCRASQDIRNELGWYQQKPGKAPKLLIYAASSLQSGVPSRFSGSGSGTDFTLTISSLQPEDFATYYCQQSYSTPPWTFGQGTKLEIKR", "pKd": 9.30}
{"BINDER": "COVID19_P11_G03 (scFv, V domains shown) VH: QVQLVQSGAEVKKPGASVKVSCKASGYTFTSYEINWVRQAPGQGLEWMGIINPSDGSSTYAQKFQGRVTMTRDTSTSTVYMELSSLRSEDTAVYYCARDRGYSYDHDQIYYYYGMDVWGQGTTVTVSS VL: DIQMTQSPSSLSASVGDRVTITCRVSQGISSYLNWYQQKPGKAPKLLIYAASILQSGVPSRFSGSGSGTDFTLTISSLQPEDFATYYCQQGYSTPFTFGPGTKVDIKR", "pKd": 8.19}
